System: E. Coli ATCC 25922
Recorded MIC for the following molecules
MEASURE_NAME: MIC

[[record]]
chemical_string = "CCc1cc(C(=O)O)ccc1NC(=O)c1cc2cc(F)cc(NC)c2[nH]c1=O"
target_or_system = "E. Coli ATCC 25922"
result = "> 2 µg/mL"

[[record]]
chemical_string = "CNc1cccc2cc(C(=O)Nc3ccc(C(=O)O)cc3OCCCN)c(=O)[nH]c12.O=CO"
target_or_system = "E. Coli ATCC 25922"
result = "> 16 µg/mL"

[[record]]
chemical_string = "CNc1cc(F)cc2cc(C(=O)Nc3ccc(C(=O)O)cc3CCN(C)C3CCCCC3)c(=O)[nH]c12"
target_or_system = "E. Coli ATCC 25922"
result = "> 32 µg/mL"

[[record]]
chemical_string = "CNCCc1c(C(=O)Nc2ccc(C(=O)O)cc2)c(=O)[nH]c2c(NC)cc(F)cc12.O=C(O)C(F)(F)F"
target_or_system = "E. Coli ATCC 25922"
result = "> 8 µg/mL"

[[record]]
chemical_string = "CNc1cccc2cc(C(=O)Nc3cnc(CO)nc3)c(=O)[nH]c12"
target_or_system = "E. Coli ATCC 25922"
result = "> 4 µg/mL"

[[record]]
chemical_string = "CNCCCc1c(C(=O)Nc2ccc(C(=O)O)cc2)c(=O)[nH]c2c(NC)cc(F)cc12.O=C(O)C(F)(F)F"
target_or_system = "E. Coli ATCC 25922"
result = "> 32 µg/mL"

[[record]]
chemical_string = "CNc1nccc2cc(C(=O)Nc3ccc(C(=O)O)cc3)c(=O)[nH]c12"
target_or_system = "E. Coli ATCC 25922"
result = "> 64 µg/mL"

[[record]]
chemical_string = "CNc1cc(F)cc2cc(C(=O)Oc3ccc(C(=O)O)cc3)c(=O)[nH]c12"
target_or_system = "E. Coli ATCC 25922"
result = "> 32 µg/mL"

